target: αβ-tubulin (β-tubulin, colchicine site) (Bos taurus, UniProt P81947+Q6B856); construct: calf brain tubulin; with α-tubulin; assay: fluorescence competition: displacement of TUB091 fluorescence by TUB092, giving Ka ([…] GTP); conditions: read-out: fluorescence competition: displacement of TUB091 fluorescence by TUB092, giving
pKd: −log10 of the molar value.
experimental.endpoint: pKd

smiles.repr: COc1ccc(/C=C(\C)C(=O)c2cc(OC)c3c(c2)OCO3)cc1N
recorded.number: 7.04
